TARGET_DESC: HCV NS3/4A protease complex, J4L6S strain (Hepatitis C virus genotype 1b, UniProt O92972, C1454S/C1711G)
Construct: DNA encoding the recombinant HCV NS3/4A protease complex (amino acids 1027 to 1711) for these strains; His tag (inferred from pET21b vector and Ni-NTA purification)
Sequence (O92972 1027-1711 C1454S/C1711G, one chain of several): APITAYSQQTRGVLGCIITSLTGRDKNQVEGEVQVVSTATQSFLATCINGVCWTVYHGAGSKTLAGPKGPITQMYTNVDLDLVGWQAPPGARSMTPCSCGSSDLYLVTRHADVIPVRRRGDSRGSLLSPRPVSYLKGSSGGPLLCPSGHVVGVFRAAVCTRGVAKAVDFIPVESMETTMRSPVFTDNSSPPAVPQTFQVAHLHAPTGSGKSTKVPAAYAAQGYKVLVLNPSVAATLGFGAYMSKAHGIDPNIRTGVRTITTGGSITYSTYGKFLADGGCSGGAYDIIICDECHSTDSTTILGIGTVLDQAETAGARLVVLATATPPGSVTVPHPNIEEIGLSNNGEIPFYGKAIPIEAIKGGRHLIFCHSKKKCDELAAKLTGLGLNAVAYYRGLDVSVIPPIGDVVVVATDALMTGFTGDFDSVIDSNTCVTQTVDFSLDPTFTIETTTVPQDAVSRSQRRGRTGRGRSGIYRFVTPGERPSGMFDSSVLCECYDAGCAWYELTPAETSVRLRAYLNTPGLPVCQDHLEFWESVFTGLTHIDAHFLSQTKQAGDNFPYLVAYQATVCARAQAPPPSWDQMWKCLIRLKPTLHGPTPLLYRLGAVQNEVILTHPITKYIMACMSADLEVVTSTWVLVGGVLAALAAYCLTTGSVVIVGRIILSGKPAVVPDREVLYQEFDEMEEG
EXPERIMENT: FRET peptide assay to monitor HCV NS3/4A proteolytic activity (J4L6S strain)
PARAMETER: IC50

> print(dat)
                         structure.notation   value
1  C=C[C@@H]1C[C@]1(NC(=O)[C@@H]1C[C@@H](OC(=O)c2ccccc2)CN1C(=O)[C@@H](NC(=O)OC(C)(C)C)C(C)(C)C)C(=O)NS(=O)(=O)C1CC1  2.5 nM

----------
TARGET_DESC: porcine pancreatic elastase (PPE) (Sus scrofa)
Sequence (P00772 27-266): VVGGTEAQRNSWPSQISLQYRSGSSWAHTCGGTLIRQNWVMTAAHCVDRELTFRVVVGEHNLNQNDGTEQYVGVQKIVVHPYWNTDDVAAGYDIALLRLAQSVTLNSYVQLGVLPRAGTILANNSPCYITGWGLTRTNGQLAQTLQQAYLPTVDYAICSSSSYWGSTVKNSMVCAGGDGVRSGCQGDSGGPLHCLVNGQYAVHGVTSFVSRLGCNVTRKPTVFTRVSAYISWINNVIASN

COMPOUND	TARGET_DESC	IC50
C=C[C@@H]1C[C@]1(NC(=O)[C@@H]1C[C@@H](OC(=O)c2ccccc2)CN1C(=O)[C@@H](NC(=O)OC(C)(C)C)C(C)(C)C)C(=O)NS(=O)(=O)C1CC1 [Compound 1]	porcine pancreatic elastase (PPE) (Sus scrofa)	> 200 µM

----------
TARGET_DESC: human liver cathepsin B (Homo sapiens)
pIC50: −log10 of the molar value.
PARAMETER: pIC50

> print(dat)
                         structure.notation                             target.desc   value
1  C=C[C@@H]1C[C@]1(NC(=O)[C@@H]1C[C@@H](OC(=O)c2ccccc2)CN1C(=O)[C@@H](NC(=O)OC(C)(C)C)C(C)(C)C)C(=O)NS(=O)(=O)C1CC1  human liver cathepsin B (Homo sapiens)  < 4.30

----------
TARGET_DESC: human neutrophil elastase (HNE) (Homo sapiens, UniProt P08246)
Sequence (P08246 30-267): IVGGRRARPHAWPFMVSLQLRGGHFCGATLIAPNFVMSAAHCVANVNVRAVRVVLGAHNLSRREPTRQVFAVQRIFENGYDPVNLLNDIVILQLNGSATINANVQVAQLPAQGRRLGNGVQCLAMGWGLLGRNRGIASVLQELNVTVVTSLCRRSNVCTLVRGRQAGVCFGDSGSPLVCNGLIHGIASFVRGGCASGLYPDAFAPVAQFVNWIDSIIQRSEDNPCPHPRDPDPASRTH
EXPERIMENT: Specificity assay, human neutrophil elastase
MEASUREMENT_SETUP: 2 h enzyme-inhibitor pre-incubation; read-out: HLE activity (IC50) in the specificity assay
pIC50: −log10 of the molar value.

COMPOUND	pIC50
C=C[C@@H]1C[C@]1(NC(=O)[C@@H]1C[C@@H](OC(=O)c2ccccc2)CN1C(=O)[C@@H](NC(=O)OC(C)(C)C)C(C)(C)C)C(=O)NS(=O)(=O)C1CC1 [Compound 1]	< 3.70

----------
TARGET_DESC: HCV NS3/4A protease complex, BMS strain (UniProt P27958, species not given/STRAIN_BMS)
Construct: given for H77 and J4L6S, not expressly for BMS; fused on or other part: three-lysine solubilising tail at the end of NS4A (given for the H77 and J4L6S constructs)
Sequence (P27958 1027-1657, change not shown, one chain of several): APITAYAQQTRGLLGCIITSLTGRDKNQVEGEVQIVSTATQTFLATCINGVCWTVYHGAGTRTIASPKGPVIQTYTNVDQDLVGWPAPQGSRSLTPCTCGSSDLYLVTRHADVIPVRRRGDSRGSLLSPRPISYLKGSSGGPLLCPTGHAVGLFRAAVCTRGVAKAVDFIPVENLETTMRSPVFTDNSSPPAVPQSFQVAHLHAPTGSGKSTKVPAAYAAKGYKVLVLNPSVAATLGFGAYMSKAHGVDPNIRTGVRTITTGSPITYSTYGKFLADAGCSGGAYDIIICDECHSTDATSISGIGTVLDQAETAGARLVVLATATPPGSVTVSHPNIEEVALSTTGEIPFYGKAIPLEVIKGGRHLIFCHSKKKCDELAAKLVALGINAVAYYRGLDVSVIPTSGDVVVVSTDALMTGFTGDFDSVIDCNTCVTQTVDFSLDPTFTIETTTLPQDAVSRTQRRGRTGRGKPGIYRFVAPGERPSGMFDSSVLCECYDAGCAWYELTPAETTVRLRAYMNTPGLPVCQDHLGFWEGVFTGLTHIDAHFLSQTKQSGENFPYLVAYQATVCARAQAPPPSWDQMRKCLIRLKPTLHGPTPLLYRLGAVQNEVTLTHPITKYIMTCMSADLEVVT
EXPERIMENT: FRET peptide assay to monitor HCV NS3/4A proteolytic activity (BMS strain)
Type: biochemical, HCV genotype 1a
MEASUREMENT_SETUP: read-out: Activity Range (IC50); NS3/4A BMS strain
pIC50: −log10 of the molar value.
PARAMETER: pIC50

> print(dat)
                         structure.notation         value
1  C=C[C@@H]1C[C@]1(NC(=O)[C@@H]1C[C@@H](OC(=O)c2ccccc2)CN1C(=O)[C@@H](NC(=O)OC(C)(C)C)C(C)(C)C)C(=O)NS(=O)(=O)C1CC1  7.30 to 9.00

----------
TARGET_DESC: HCV NS3/4A protease complex, H77 strain (Hepatitis C virus genotype 1a, UniProt P27958, C1454S/C1711G)
Construct: DNA encoding the recombinant HCV NS3/4A protease complex (amino acids 1027 to 1711) for these strains; His tag (inferred from pET21b vector and Ni-NTA purification)
Sequence (P27958 1027-1711 C1454S/C1711G, one chain of several): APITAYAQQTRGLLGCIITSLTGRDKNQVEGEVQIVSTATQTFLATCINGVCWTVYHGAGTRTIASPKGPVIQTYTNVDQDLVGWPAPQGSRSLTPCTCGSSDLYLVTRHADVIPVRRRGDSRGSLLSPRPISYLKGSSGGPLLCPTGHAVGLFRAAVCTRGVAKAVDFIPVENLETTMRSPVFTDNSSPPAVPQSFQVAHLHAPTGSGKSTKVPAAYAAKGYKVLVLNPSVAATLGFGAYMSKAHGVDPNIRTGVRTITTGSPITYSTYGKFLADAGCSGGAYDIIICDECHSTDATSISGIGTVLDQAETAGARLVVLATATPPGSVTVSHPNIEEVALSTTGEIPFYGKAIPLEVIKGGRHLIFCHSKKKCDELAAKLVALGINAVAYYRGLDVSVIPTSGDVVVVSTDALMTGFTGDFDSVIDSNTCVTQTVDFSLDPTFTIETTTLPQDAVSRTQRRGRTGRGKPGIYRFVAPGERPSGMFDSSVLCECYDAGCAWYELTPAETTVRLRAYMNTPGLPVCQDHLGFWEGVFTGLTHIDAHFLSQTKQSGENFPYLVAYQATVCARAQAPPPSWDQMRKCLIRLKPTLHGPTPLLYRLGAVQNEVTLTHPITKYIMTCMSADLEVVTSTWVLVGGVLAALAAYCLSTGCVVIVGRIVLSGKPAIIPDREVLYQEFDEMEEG
EXPERIMENT: FRET peptide assay to monitor HCV NS3/4A proteolytic activity (H77 strain)
pIC50: −log10 of the molar value.
PARAMETER: pIC50

> print(dat)
                         structure.notation  parameter  value
1  C=C[C@@H]1C[C@]1(NC(=O)[C@@H]1C[C@@H](OC(=O)c2ccccc2)CN1C(=O)[C@@H](NC(=O)OC(C)(C)C)C(C)(C)C)C(=O)NS(=O)(=O)C1CC1      pIC50   8.22

----------
TARGET_DESC: HCV NS3/4A protease complex, BMS strain (UniProt P27958, species not given/STRAIN_BMS)
Construct: given for H77 and J4L6S, not expressly for BMS; fused on or other part: three-lysine solubilising tail at the end of NS4A (given for the H77 and J4L6S constructs)
EXPERIMENT: FRET peptide assay to monitor HCV NS3/4A proteolytic activity (BMS strain)
Type: biochemical, HCV genotype 1a
MEASUREMENT_SETUP: read-out: IC50 against the NS3/4A BMS strain in the enzyme assay; BMS strain

COMPOUND	IC50 [nM]
C=C[C@@H]1C[C@]1(NC(=O)[C@@H]1C[C@@H](OC(=O)c2ccccc2)CN1C(=O)[C@@H](NC(=O)OC(C)(C)C)C(C)(C)C)C(=O)NS(=O)(=O)C1CC1 [Compound 1]	13
